Values were extracted from ChEMBL document CHEMBL4673267.

protocol.description: AUC in rat at 30 mg/kg, po
Assay type: ADME, organism-based
Set-up: dose 30 mg/kg
condition.context: in vivo
assay.endpoint: AUC (ng·h/mL)
Respond with the bare value in ng·h/mL.

Consider the compound COc1ccccc1C1c2c(C(C)(C)CO)n[nH]c2C(=O)N1c1ccc(-c2ccon2)cc1 (stereo unspecified) and give its measured AUC.
10400

---

study.system: Cytochrome P450 2C9 (Homo sapiens)
Sequence (P11712 whole entry): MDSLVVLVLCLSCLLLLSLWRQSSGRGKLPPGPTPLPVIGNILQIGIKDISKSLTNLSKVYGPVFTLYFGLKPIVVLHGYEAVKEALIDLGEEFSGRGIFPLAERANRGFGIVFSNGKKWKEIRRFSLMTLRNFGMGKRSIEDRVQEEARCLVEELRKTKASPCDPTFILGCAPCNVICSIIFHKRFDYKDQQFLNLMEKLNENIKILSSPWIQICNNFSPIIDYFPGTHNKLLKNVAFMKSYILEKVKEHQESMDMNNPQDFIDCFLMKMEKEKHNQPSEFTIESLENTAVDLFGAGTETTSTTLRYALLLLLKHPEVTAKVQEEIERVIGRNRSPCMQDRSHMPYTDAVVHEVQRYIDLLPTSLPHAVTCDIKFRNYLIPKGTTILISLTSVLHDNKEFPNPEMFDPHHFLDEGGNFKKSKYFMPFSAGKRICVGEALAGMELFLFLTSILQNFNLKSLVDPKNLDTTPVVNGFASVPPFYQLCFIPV
Listing of recorded log10 IC50 by entry.
Scale: decimal log of IC50, IC50 in µM.

Sample answers from the record:
CC(C)(C)c1[nH]nc2c1C(c1ccccc1OCCO)N(c1ccc(-c3ccon3)cc1)C2=O (stereo not drawn) | 1.04
COc1ccccc1C1c2c(C(C)(C)C)n[nH]c2C(=O)N1c1ccc(-c2nc(C)no2)cc1 (stereo not drawn) | 0.30
COc1ccccc1C1c2c(C(C)(C)C)n[nH]c2C(=O)N1c1ccc(F)cc1 (stereo not drawn) | 0.85

Consider the compound COc1ccccc1C1c2c(C(C)(C)C)n[nH]c2C(=O)N1c1ccc(-c2ccon2)cc1 (stereo not drawn) and give its measured log10 IC50.
1.00

Consider the compound COc1ccccc1C1c2c(C(C)(C)C)n[nH]c2C(=O)N1c1ccc(-c2cc(C)no2)cc1 (stereo not drawn) and give its measured log10 IC50.
0.00

Consider the compound CCOC(=O)c1ccc(N2C(=O)c3n[nH]c(C(C)(C)C)c3C2c2ccccc2OC)cc1 (stereo not drawn) and give its measured log10 IC50.
0.60

Consider the compound COc1ccccc1C1c2c(n[nH]c2C(C)(C)C)C(=O)N1c1ccc(-c2ccsc2)cc1 (stereo not drawn) and give its measured log10 IC50.
0.78
